assay-system: T1, HLA-A*01:01 (human, biotinylated heavy chain)
T1 construct: Conditional HLA class I complex (heavy chain + B2M) first held by a UV-labile peptide; the tested peptide is exchanged in after UV cleavage
protocol-description: UV peptide exchange; HLA class I ELISA
measurement-type: Exch I (%)

• HREKQLIAM [Peptide 7, 9-mer HREKQLIAM derived from P22 (SEQ ID NO: 1003)] = 5.5
• YHREKQLIA [Peptide 6, 9-mer YHREKQLIA derived from P22 (SEQ ID NO: 1003)] = 6.2
• LIAMDSAIT [Peptide 10, 9-mer LIAMDSAIT derived from P22 (SEQ ID NO: 1003)] = 6.2
• AMDSAITLW [Peptide 1, 9-mer AMDSAITLW derived from FUS1 (SEQ ID NO: 1001)] = 4.7
